recorded_endpoint: melting point

| compound | melting point |
| --- | --- |
| CCc1[nH]n(C2CCCC2)c2nc(CN3CCc4ccccc4C3)nc(=O)c1-2 | 149 to 151 °C |

Which melting point is listed for COc1ccc(COc2cccc(C#CC(=O)c3ccccc3)c2)cc1 ?
79 to 80 °C

And for COc1cccc2c(=O)c(OCC(=O)O)coc12 ?
215 to 217 °C

And for NC(=O)c1cc2c(SC3CCCCC3)cncc2s1 ?
205 to 207 °C

And for Cc1ncn(-c2nccc3[nH]c(=O)ccc23)n1 ?
> 300 °C

And for CCOC(=O)c1cn(Cc2ccccc2)nc1OCc1ccc(OCc2nc(-c3ccco3)oc2C)c(OCOC)c1 ?
120 to 121 °C

And for CC(C)(C)c1ccc(S(=O)(=O)NCc2ccc(C(=O)O)cc2)cc1 ?
290 to 291 °C

And for CC(=O)OC1C(CO)OC(c2ccc(Cl)c(Cc3ccc(-c4ccccc4)s3)c2)C(OC(C)=O)C1OC(C)=O (configuration not stated) ?
166 to 168 °C

And for O=C1CCC2=C1C(c1ccc(Cl)c(Cl)c1)C1=C(CCS1)N2 (configuration not stated) ?
> 260 °C

And for C=C(C)C(=O)Nc1cccc(C(=O)NC2=NN(c3c(Cl)cc(Cl)cc3Cl)C(=O)C2c2cc[nH]n2)c1 (configuration not stated) ?
227 to 230 °C

And for OC1(Cn2cncn2)CCCC1Cc1ccc(-c2ccccc2)cc1 (configuration not stated) ?
145 to 148 °C

And for Cc1ccc(SCC(CCC(=O)O)C(=O)O)cc1C (configuration not stated) ?
96 to 98 °C

====

Consider the following compounds and their measured melting point readings.

Which melting point is listed for N#CC1=C(C2CC2)Nc2n[nH]cc2C1c1ccccc1Br (centres undefined) ?
> 250 °C

And for CCCCCCN(O)C(=O)N(C)C ?
19 to 20 °C

And for COc1cc(OC)c(-c2cccs2)cc1/C=C/C(=O)c1ccc(S(=O)(=O)Nc2cc(C)on2)cc1 ?
202 to 203 °C

And for COc1ccc2c(n1)C1(CO2)C(=O)N(CC(=O)Nc2ccccc2F)c2ccccc21 (centres undefined) ?
> 170 °C

====

Consider the following compounds and their measured melting point readings.

Recorded melting point, per entry:
| compound | reported_measurement |
| --- | --- |
| CC(C)(C)[C@H](N)C(N)=O | 104 to 105 °C |
| Cc1cc(C2CCN(S(=O)(=O)C(C)(C)C(=O)NO)CC2)ccc1-c1cccc(OC[C@@H](O)CO)c1 | 152 to 154 °C |
| O=c1c2ccc3c(c2oc2cccc(F)c12)CC(CO)O3 (centres undefined) | 220 to 221 °C |

Which melting point is listed for CC(C(=O)O)c1ccc(-c2cn3ccccc3n2)cc1 (centres undefined) ?
244 to 246 °C

====

recorded_endpoint: melting point

| compound | melting point |
| --- | --- |
| CCCC1=C(O)C(C(=O)CC)C(=O)OC1=O (stereo not given) | 149 to 150 °C |
| NS(=O)(=O)c1cccc(NC(=O)c2cnn3c(C4CC4)cc(-c4ccc(C(F)(F)F)cc4)nc23)c1 | 249 to 250 °C |
| CC(=O)NCc1ccc2c(c1)[C@@H](N1CCCC1=O)[C@H](O)C(C)(C)O2 (relative stereo) | 206 to 208 °C |

Which melting point is listed for Nc1nc2c(ncn2COCCOC(=O)c2ccccc2)c(=O)[nH]1 ?
222 to 226 °C

And for Fc1ccc(-c2c3cccc(C(F)(F)F)c3nn2Cc2ccc(F)cc2Cl)cc1 ?
78 °C

====

Consider the following compounds and their measured melting point readings.

| compound | melting point |
| --- | --- |
| O=C(O)Cc1ccccc1OCCCc1cn(-c2ccc(C(F)(F)F)cn2)nc1C1CCCCC1 | 127 to 128 °C |
| CCCCCOc1ccc(C(=O)NCCCCCCCNC(=O)c2ccc(OCCCCC)cc2)cc1 | 155 to 156 °C |
| C=C(Cn1ccnc1)c1ccccc1OCc1ccc(Cl)cc1Cl | 84 to 86 °C |
| CS(=O)(=O)C(Cl)=C(Cl)C#N | 100 °C |
| CC(C)=CC(=O)OC(COc1ccc(C(=O)c2ccccc2)c(O)c1)COc1ccc(C(=O)c2ccccc2)c(O)c1 | 148 to 150 °C |
| O=C1N[C@H]2[C@H](O)[C@H](O)[C@@H](O)[C@H](CO)[C@@H]2c2cc3c(cc21)OCO3 | > 200 °C |
| COc1ccc(-n2nc(C(F)(F)F)cc2OCN2C(=O)c3c(C(C)C)cc(OC)cc3S2(=O)=O)cc1 | 111 to 113 °C |
| CC(C)(C)OC(=O)Nc1ccc(CN2C(=O)C3(COc4cc5c(cc43)OCCO5)c3ccccc32)cn1 (stereo not given) | 238 to 239 °C |
| NNC1=Nc2ccc(C(F)(F)F)cc2C(c2ccccc2)=NC1 | 127 °C |
| O=C(Nc1c(C(O)(C(F)(F)F)C(F)(F)F)ccc2ccccc12)c1ccc(I)cc1 | 189 to 190 °C |

Which melting point is listed for O=C(Nc1ccc2cccnc2c1)c1cc2cc(F)ccc2n1Cc1cccc(F)c1 ?
222 to 223 °C

And for CNc1cc(Oc2ccc3c(C(=O)Nc4ccc(F)c(C(F)(F)F)c4)cncc3c2)ncn1 ?
255 to 257 °C

And for C=C[C@@]12CCC[C@@H](C#N)[C@@H]1C(=O)CC2 ?
41 to 42 °C

====

Consider the following compounds and their measured melting point readings.

| compound | melting point |
| --- | --- |
| CC(C)c1nc(CO)n(CC(=O)c2ccccc2)c1Sc1cc(Cl)cc(Cl)c1 | 205 to 211 °C |
| c1cnc(C2CNCC(c3ncccn3)N2)nc1 (centres undefined) | 159 to 161 °C |
| CCCc1c(OCCCCCOc2ccc(CCCCC(=O)O)cc2CCC(=O)O)ccc2c1OCCC2=O | 101 to 104 °C |
| CC(C)c1nn(Cc2ccc(Cl)cc2Cl)cc1CCCO | 68 to 69 °C |
| COc1ccc(NCC(=O)N2CCC(Cc3ccc(F)cc3)CC2)cc1 | 141 to 143 °C |
| Nc1c(Br)cc(S(=O)(=O)Cl)cc1Br | 153 to 155 °C |

Which melting point is listed for COC(=O)c1ccc2nc(C)ccc2c1 ?
98 to 101 °C

And for BrC(Br)Cc1cccc2[nH]c(-c3ccccc3)cc12 ?
106 °C

And for Cc1nc(-n2cnn(Cc3ccc(F)cc3)c2=O)sc1C(=O)NCc1ncco1 ?
152 to 153 °C

And for COc1cc(-c2ccccc2C(F)(F)F)c(Cl)cc1C(=O)N1Cc2ccc(C(=O)N(C)CC(O)C(O)C(O)C(O)CO)n2Cc2ccccc21 (centres undefined) ?
150 to 151 °C

And for CCc1ccc(N=c2sc3ncccc3c(=O)n2CC)cc1 ?
148 to 149 °C

And for CCCC(c1cc(C(=O)O)ccc1OCc1ccc(Br)cc1)n1ccnc1 (centres undefined) ?
187 to 189 °C

And for O=C(O)CCc1nc(-c2ccccc2)cc2ccccc12 ?
160 °C

And for COc1cc2c(c3c1OC(C)(C)C3)C(c1cccc(-c3ccc(N)nc3)c1)=NC(C)(C)C2 ?
165 to 168 °C

====

recorded_endpoint: melting point

Recorded melting point, per entry:
| compound | reported_measurement |
| --- | --- |
| O=C(O)[C@H](CCc1ccccc1)NS(=O)(=O)c1ccc2oc3ccccc3c2c1 | 130 to 132 °C |
| Cc1ccc2c(n1)CC(c1ccccc1)CC2=O (stereo unspecified) | 79 to 81 °C |
| CC(C)(C)C(O)C(CC1CCCCC1)n1cncn1 (stereo unspecified) | 104 to 107 °C |
| CCC(=O)c1cc(C#N)c(=O)[nH]c1C | 259 to 263 °C |
| O=[N+]([O-])c1ccc(OCC(F)(F)F)c([N+](=O)[O-])c1 | 76 to 77 °C |

Now let's try a different one.
Which melting point is listed for COc1ccn2nc(SCc3ccccc3)nc2n1 ?
126 to 128 °C

====

recorded_endpoint: melting point

Recorded melting point, per entry:
| molecule | melting point |
| --- | --- |
| CCOC(=O)Cc1ccc(OCc2ccccc2)c2c1OCCO2 | 86 °C |
| CCCCc1nc(Cl)c(C(N)=O)n1Cc1ccc2oc(-c3ccccc3-c3nnn[nH]3)c(Br)c2c1 | 131 to 133 °C |

Which melting point is listed for O=CC1=C(Cl)C(=CO)CCC1 ?
127 °C

And for O=C1CCCN1CC1CCN(c2nc(C(F)(F)F)ncc2OCc2ccccc2)CC1 ?
155 to 157 °C

And for CCCCCCCCC#CCC#CCC#CCSCC(=O)NCC ?
59 °C

And for O=C(Nc1ccccc1-c1nnc(CSCCOc2ccccc2)o1)N1CCCC1 ?
184 to 185 °C

And for O=C(O)C1(S(=O)(=O)c2ccc(Oc3ccc(Cl)cc3)cc2)CCN(Cc2ccccc2)CC1 ?
201 °C

And for CC(C)(C)OC(=O)NN=C1C2CC3CC(C2)CC1C3 ?
175 to 177 °C

And for CCCCOc1cc(O)c(C#N)s1 ?
107 °C

And for O=c1[nH]c2ccc(Cl)cc2c(-c2ccccc2F)c1CO ?
282 to 286 °C

And for CC(C)(C)c1cccc(C(C)(C)C)c1OP1OP(Oc2c(C(C)(C)C)cccc2C(C)(C)C)OP(Oc2c(C(C)(C)C)cccc2C(C)(C)C)O1 (stereo unspecified) ?
115 to 132 °C

And for COc1cc(O)c2c(c1C)C(=O)SCC(=O)N[C@@H](c1nc(C)no1)COC2 ?
194 to 196 °C

Origin of the recorded values: a melting point compilation (Tetko et al.; mined from patent text by program, amines drawn as free bases though some values may be those of a salt)
